Organism: Rattus norvegicus
Assay: Open TG-GATES - Regimen: Daily Repeat
Type: toxicity, organism-based, Sprague-Dawley
Set-up: regimen Daily Repeat, gender Male, age 6 weeks
Conditions: in vivo, po, 0 mg/kg, […], tissue Blood, route gavage, dose level Control, time 28 day
measured.metric: WBC (x10_2/uL)
All answers are understood in x10_2/uL, so give the number only.

// below: answered compounds
O=C(N[C@H](CO)[C@H](O)c1ccc([N+](=O)[O-])cc1)C(Cl)Cl    79.4
CCc1oc2ccccc2c1C(=O)c1cc(I)c(O)c(I)c1    150.6
CC(C)(S)[C@@H](N)C(=O)O    93.7

[Q] Find the recorded WBC belonging to O=C(O)c1cccnc1 and report it.
[A] 119.1

[Q] Find the recorded WBC belonging to CCSCC[C@H](N)C(=O)O and report it.
[A] 104.9

[Q] Find the recorded WBC belonging to CC(C)C(=O)Nc1ccc([N+](=O)[O-])c(C(F)(F)F)c1 [FLUTAMIDE] and report it.
[A] 122

[Q] Find the recorded WBC belonging to CCN1CCCC1CNC(=O)c1cc(S(N)(=O)=O)ccc1OC (stereo unspecified) [SULPIRIDE] and report it.
[A] 106.9

[Q] Find the recorded WBC belonging to CN1C(=O)OC(C)(C)C1=O and report it.
[A] 114

====

Organism: Rattus norvegicus
Assay: Open TG-GATES - Regimen: Daily Repeat
Format: toxicity, organism-based, Sprague-Dawley
Design: regimen Daily Repeat, gender Male, age 6 weeks
Conditions: in vivo, po, 100 mg/kg, […], tissue Plasma, route gavage, dose level Low, time 28 day
Below, each of the compounds is paired with its reported gamma-GTP value.
All answers are understood in IU/L, so give the number only.

// below: answered compounds
O=C(N[C@H](CO)[C@H](O)c1ccc([N+](=O)[O-])cc1)C(Cl)Cl    1
O=C(O)c1cccnc1    2
CCN1CCCC1CNC(=O)c1cc(S(N)(=O)=O)ccc1OC (centres undefined) [SULPIRIDE]    1

Then this compound:
[Q] Find the recorded gamma-GTP belonging to CC(C)(S)[C@@H](N)C(=O)O and report it.
[A] 1.2

====

Species on record: Rattus norvegicus
Assay: Open TG-GATES - Regimen: Single
Format: toxicity, organism-based, Sprague-Dawley
Parameters: regimen Single, gender Male, age 6 weeks
Conditions: in vivo, po, 0 mg/kg, 6 h, tissue Liver, route gavage, dose level Control
Below, each of the molecules is paired with its reported LIVER value.
All answers are understood in g, so give the number only.

// below: answered molecules
CC(=N)S [THIOACETAMIDE]    8.3
CC(=O)Oc1cc(C(C)C)c(OCCN(C)C)cc1C    8.8
CC(C)C(=O)Nc1ccc([N+](=O)[O-])c(C(F)(F)F)c1 [FLUTAMIDE]    9
CN1C(=O)OC(C)(C)C1=O    8.6
CCC(C)(C)C(=O)O[C@H]1C[C@@H](C)C=C2C=C[C@H](C)[C@H](CC[C@@H]3C[C@@H](O)CC(=O)O3)[C@H]21    8.5
CCSCC[C@H](N)C(=O)O    9
Oc1ncnc2[nH]ncc12    9.5
CC(C)(S)[C@@H](N)C(=O)O    8.5

[Q] Find the recorded LIVER belonging to C#C[C@]1(O)CC[C@H]2[C@@H]3CCc4cc(O)ccc4[C@H]3CC[C@@]21C and report it.
[A] 7.6

[Q] Find the recorded LIVER belonging to C[C@]12CCC(=O)C=C1CC[C@@H]1[C@@H]2CC[C@@]2(C)[C@H]1CC[C@]2(C)O and report it.
[A] 8.5

====

Species: Rattus norvegicus
Assay: Open TG-GATES - Regimen: Daily Repeat
Type: toxicity, organism-based, Sprague-Dawley
Parameters: regimen Daily Repeat, gender Male, age 6 weeks
Settings: in vivo, po, 0 mg/kg, […], tissue Plasma, route gavage, dose level Control, time 14 day
measured.metric: GLC
Please answer using a numeric value trailed by its unit.

// below: answered molecules
CCc1oc2ccccc2c1C(=O)c1cc(I)c(O)c(I)c1    201 mg/dL
CC(C)(S)[C@@H](N)C(=O)O    189 mg/dL
CC(=N)S [THIOACETAMIDE]    181.6 mg/dL

Then this molecule:
[Q] Find the recorded GLC belonging to C[C@](N)(Cc1ccc(O)c(O)c1)C(=O)O and report it.
[A] 188.4 mg/dL

====

Below, each of the compounds is paired with its reported Eos value.
Organism: Rattus norvegicus
Test: Open TG-GATES - Regimen: Daily Repeat
Assay type: toxicity, organism-based, Sprague-Dawley
Design: regimen Daily Repeat, gender Male, age 6 weeks
Details: in vivo, po, 0 mg/kg, […], tissue Blood, route gavage, dose level Control, time 7 day
All answers are understood in %, so give the number only.

// below: answered compounds
CC(=N)S [THIOACETAMIDE]    1
CCSCC[C@H](N)C(=O)O [ETHIONINE]    0.8
CCC(C)(C)C(=O)O[C@H]1C[C@@H](C)C=C2C=C[C@H](C)[C@H](CC[C@@H]3C[C@@H](O)CC(=O)O3)[C@H]21 [SIMVASTATIN]    0.8
CC(=O)Oc1cc(C(C)C)c(OCCN(C)C)cc1C [MOXISYLYTE]    0.6
Oc1ncnc2[nH]ncc12 [ALLOPURINOL]    1
CCN1CCCC1CNC(=O)c1cc(S(N)(=O)=O)ccc1OC (stereo not given) [SULPIRIDE]    1
C[C@](N)(Cc1ccc(O)c(O)c1)C(=O)O [METHYLDOPA]    1.2
Nc1nc(N)c2nc(-c3ccccc3)c(N)nc2n1    0.6
O=C(N[C@H](CO)[C@H](O)c1ccc([N+](=O)[O-])cc1)C(Cl)Cl [CHLORAMPHENICOL]    0.8

Then this compound:
[Q] Find the recorded Eos belonging to CCc1oc2ccccc2c1C(=O)c1cc(I)c(O)c(I)c1 [BENZIODARONE] and report it.
[A] 1

====

Species on record: Rattus norvegicus
Test: Open TG-GATES - Regimen: Daily Repeat
Format: toxicity, organism-based, Sprague-Dawley
Parameters: regimen Daily Repeat, gender Male, age 6 weeks
Details: in vivo, po, 300 mg/kg, 72 h, tissue Plasma, route gavage, dose level Middle, time 3 day
measured.metric: LDH (IU/L)
All answers are understood in IU/L, so give the number only.

// below: answered compounds
CCN1CCCC1CNC(=O)c1cc(S(N)(=O)=O)ccc1OC (centres undefined) [SULPIRIDE]    78.2
O=C(N[C@H](CO)[C@H](O)c1ccc([N+](=O)[O-])cc1)C(Cl)Cl [CHLORAMPHENICOL]    84.2
CC(C)(S)[C@@H](N)C(=O)O [PENICILLAMINE]    102

Then this compound:
[Q] Find the recorded LDH belonging to O=C(O)c1cccnc1 [NIACIN] and report it.
[A] 165.8

====

Organism: Rattus norvegicus
Assay: Open TG-GATES - Regimen: Daily Repeat
Format: toxicity, organism-based, Sprague-Dawley
Set-up: regimen Daily Repeat, gender Male, age 6 weeks
Conditions: in vivo, po, 0 mg/kg, […], tissue Blood, route gavage, dose level Control, time 14 day
measured.metric: Bas (%)
All answers are understood in %, so give the number only.

C#C[C@]1(O)CC[C@H]2[C@@H]3CCc4cc(O)ccc4[C@H]3CC[C@@]21C [ETHINYL ESTRADIOL]    0
CCN1CCCC1CNC(=O)c1cc(S(N)(=O)=O)ccc1OC (stereo unspecified) [SULPIRIDE]    0.4
CC(C)C(=O)Nc1ccc([N+](=O)[O-])c(C(F)(F)F)c1 [FLUTAMIDE]    0

[Q] Find the recorded Bas belonging to CC(=O)Oc1cc(C(C)C)c(OCCN(C)C)cc1C [MOXISYLYTE] and report it.
[A] 0

[Q] Find the recorded Bas belonging to O=C(N[C@H](CO)[C@H](O)c1ccc([N+](=O)[O-])cc1)C(Cl)Cl [CHLORAMPHENICOL] and report it.
[A] 0

[Q] Find the recorded Bas belonging to Nc1nc(N)c2nc(-c3ccccc3)c(N)nc2n1 and report it.
[A] 0

====

Species on record: Rattus norvegicus
Assay: Open TG-GATES - Regimen: Daily Repeat
Assay type: toxicity, organism-based, Sprague-Dawley
Parameters: regimen Daily Repeat, gender Male, age 6 weeks
Details: in vivo, po, 0 mg/kg, […], tissue Blood, route gavage, dose level Control, time 28 day
Below, each of the compounds is paired with its reported Mono value.
All answers are understood in %, so give the number only.

Oc1ncnc2[nH]ncc12 [ALLOPURINOL]    6.2
CN1C(=O)OC(C)(C)C1=O [TRIMETHADIONE]    1.6
CCSCC[C@H](N)C(=O)O [ETHIONINE]    2
CC(=N)S [THIOACETAMIDE]    4
C#C[C@]1(O)CC[C@H]2[C@@H]3CCc4cc(O)ccc4[C@H]3CC[C@@]21C [ETHINYL ESTRADIOL]    2.2
O=C(N[C@H](CO)[C@H](O)c1ccc([N+](=O)[O-])cc1)C(Cl)Cl [CHLORAMPHENICOL]    1.8
CC(C)C(=O)Nc1ccc([N+](=O)[O-])c(C(F)(F)F)c1 [FLUTAMIDE]    2.2
C[C@](N)(Cc1ccc(O)c(O)c1)C(=O)O [METHYLDOPA]    2.6

[Q] Find the recorded Mono belonging to O=C(O)c1cccnc1 [NIACIN] and report it.
[A] 2

[Q] Find the recorded Mono belonging to CCN1CCCC1CNC(=O)c1cc(S(N)(=O)=O)ccc1OC (stereo unspecified) [SULPIRIDE] and report it.
[A] 1.8

[Q] Find the recorded Mono belonging to C[C@]12CCC(=O)C=C1CC[C@@H]1[C@@H]2CC[C@@]2(C)[C@H]1CC[C@]2(C)O [METHYLTESTOSTERONE] and report it.
[A] 2
